test: FRG1 promoter luciferase signal modulators, primary screen, FRG1 inhibition for FSHD, cell-based, C2C12 myotubes, firefly/Renilla luciferase, luminescence (AID 1084); conditions: higher = more signal, called active from +8 up or from −8 down
Please use 1.0 whenever z-score is not below -0.2, and 0.0 whenever it is.

compound | group.label
C=CC[C@]1(C(=O)NCc2ccccc2)N=C(c2ccc(OCCCO)cc2)O[C@H]1c1ccccc1 | 0.0
C[C@H]1Cc2c(-c3ccccc3)nc3c(c2CO1)CN(CCOc1ccccc1)CC3 | 1.0
CC(C)CON=C1C[C@@H](O)[C@@H](O)[C@@H]2[C@@H]3C(=O)N(Cc4ccccc4)C(=O)[C@@H]3CC[C@@H]12 | 1.0
Cc1ccc(S(=O)(=O)N[C@@H]2COC(=O)[C@H](C)COC(=O)CC=C[C@H]2C)cc1 | 0.0
COC(=O)[C@H]1COC(c2ccc(OCCCO)cc2)=N1 | 1.0
CC(C)=CCCC(C)=CCON=C1[C@H]2CCn3c(=O)n(C)c(=O)n3[C@H]2[C@H](O)[C@@H]2O[C@H]12 | 0.0
COCCOC(=O)N1C(=O)[C@@]2(c3cc(C#CC4(O)CCCCCC4)ccc31)[C@H](c1ccc(OCCO)cc1)N1[C@H](c3ccccc3)[C@H](c3ccccc3)OC(=O)[C@H]1[C@@H]2C(=O)NC[C@H](O)c1ccccc1 | 0.0
C[C@H]1CC[C@@H](C(=O)O)N[C@@H]1c1ccc(C#CCN(C)C)cc1 | 0.0
O=C1[C@H]2[C@H]3[C@H](O)[C@H](O)CC(=NO[C@@H]4O[C@H](CO)[C@@H](O)[C@H](O)[C@H]4O)[C@H]3CC[C@H]2C(=O)N1C1CCCCC1 | 0.0
COc1ccc(CCNC(=O)[C@@H]2c3ccccc3C(=O)N(c3ccc(C)cn3)[C@H]2c2ccc(CO)cc2)cc1 | 1.0
CC(C)C[C@@H]1NC(=O)[C@H]2C[C@@H](C(=O)O)[C@@H](c3ccc(O)cc3)N2C1=O | 1.0
O=C1C[C@@H](O)[C@@H](O)[C@@H]2[C@@H]3C(=O)N(C4CCCCC4)C(=O)[C@@H]3CC[C@H]12 | 1.0
CC(C)=NOCc1ccc(-c2cc(-c3ccccc3)no2)cc1 | 1.0
CC(C)=NOCc1cccc(-c2cc(-c3ccccc3)no2)c1 | 1.0
CC1CC/C=C\[C@H]2OC34C=CCN(C(C)C)C(=O)[C@H]3N(CCCO)C(=O)[C@@H]4C2C(=O)O1 (stereo partly specified) | 0.0
